target: Histone-lysine N-methyltransferase EHMT2 (Homo sapiens) (UniProt Q96KQ7); test: qHTS Assay for Inhibitors of Histone Lysine Methyltransferase G9a; details: G9a H3K9 monomethylation, AlphaScreen, 2 h; series mostly up to 102 µM; also: % is scaled to controls: 0 for no effect and ±100 for the full control effect; nearly all actives have a fitted effect of over 75% in size
Sequence (Q96KQ7 913-1193 limits assumed): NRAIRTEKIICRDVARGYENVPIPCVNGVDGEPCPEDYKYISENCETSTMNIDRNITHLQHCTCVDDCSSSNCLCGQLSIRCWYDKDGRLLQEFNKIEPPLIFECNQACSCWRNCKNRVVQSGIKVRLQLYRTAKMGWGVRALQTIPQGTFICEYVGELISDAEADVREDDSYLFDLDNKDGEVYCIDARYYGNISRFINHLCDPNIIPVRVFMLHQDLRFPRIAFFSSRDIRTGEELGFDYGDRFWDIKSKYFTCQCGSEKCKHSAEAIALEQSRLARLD
Hit rate of the full screen: of about 350,000 compounds, about 31,000 (8.9%) were called active. Inconclusive results (about 15%) are left out. This excerpt belongs to a sample that is enriched for actives.
MEASURED PARAMETER: activity, negative = inhibition

Below: 8 compounds and their reported activity, negative = inhibition.
compound=C[C@@]1([C@@H](NP(=O)(c2ccccc2)c2ccccc2)c2ccccc2)C[C@H]1CCO measured_parameter="activity, negative = inhibition" test_value=inactive
compound="Cc1cc(C)cc(NC(=S)NC2CC3CCCC(C2)N3Cc2cccs2)c1 (stereo not given)" measured_parameter="activity, negative = inhibition" test_value=inactive
compound="CCCC(C)n1[nH]c(=O)c2c1NC(=O)CSC2c1ccc(OC)c(OC)c1 (stereo not given)" measured_parameter="activity, negative = inhibition" test_value=inactive
compound=CCc1cccc2c(C#N)cn(CC(=O)N3CCOCC3)c12 measured_parameter="activity, negative = inhibition" test_value="15.5% [at 12.7 µM] (inactive)"
compound=Cc1ccc(C(C)C)c(OCC(=O)N2CCN(CC(=O)N3CCOCC3)CC2)c1 measured_parameter="activity, negative = inhibition" test_value="28.3% [at 12.7 µM] (inactive)"
compound=COc1ccc(CCn2c(O)c(C=NC3CC3)c(=O)[nH]c2=O)cc1OC measured_parameter="activity, negative = inhibition" test_value=inactive
compound="COc1ccc(C2N3CC(C)(C)CN23)cc1 (stereo not given)" measured_parameter="activity, negative = inhibition" test_value=inactive
compound=COC(=O)C1=C(c2ccc(F)cc2F)C[C@@H]2CC[C@H]1N2C(=O)NC1CC1 measured_parameter="activity, negative = inhibition" test_value="2.71% [at 0.501 µM] (inactive)"

Requested field: activity, negative = inhibition. Item: CC(=O)Nc1ccccc1C(=O)OCC(=O)c1cccc2ccccc12
inactive

Same for O=C1C2(Cl)C3(Cl)C4(Cl)C(Cl)(Cl)C5(Cl)C3(Cl)C1(Cl)C5(Cl)C24Cl (stereo not given)
-1.92% [at 0.501 µM] (inactive)
